molecular target: human recombinant GST cleaved CSNK1D (Homo sapiens); construct: GST (cleaved yes); assay: Purified Enzyme Assay (ADP-Glo CSNK1D Kinase Assay); details: 2 nM CSNK1D; peptide substrate 150 μM; ATP 20 μM; 45 minutes at room temperature
OBSERVABLE: log10(IC50) (log10 of the value in nM)
# values: log10(IC50), units nM

>  <COMPOUND>
C[C@@H]1C[C@H](C)n2nc(-c3ccc(F)cn3)c(-c3ccnc4[nH]ncc34)c2O1 (single isomer, unassigned) [Example 203]

>  <log10(IC50)>
1.53

$$$$
>  <COMPOUND>
CC1(C)Cn2nc(-c3ccc(F)cn3)c(-c3ccn4nccc4c3)c2O1 [Example 367]

>  <log10(IC50)>
1.61

$$$$
>  <COMPOUND>
[2H]C([2H])([2H])[C@]1(C(F)(F)F)Cn2nc(-c3ccc(F)cn3)c(-c3c(F)c(C)nc4[nH]nc(C)c34)c2CO1 (single isomer, unassigned) [Example 430]

>  <log10(IC50)>
1.96

$$$$
>  <COMPOUND>
CC1(C)Cc2c(-c3cc(C(F)F)nc4[nH]ncc34)c(-c3ccc(F)cn3)nn2C1 [Example 239]

>  <log10(IC50)>
0.60

$$$$
>  <COMPOUND>
C[C@@H]1OCc2c(-c3ccnc4[nH]ncc34)c(-c3ccc(F)cn3)nn2[C@@H]1C (single isomer, unassigned) [Example 117]

>  <log10(IC50)>
1.65

$$$$

Shift focus to the following entry.
Which log10(IC50) is reported for this compound? COCC[C@@]1(C)CCc2c(-c3ccnc4[nH]ncc34)c(-c3ccc(F)cn3)nn2C1 (single isomer, unassigned) [Example 319]
0.70

* * *

molecular target: human CSNK1D (Homo sapiens); assay: Whole Cell nBRET CSNK1D Binding Assay; settings: living CHO cells stably expressing human CSNK1D tagged with nanoluciferase; NanoBret tracer 130 nM; 2 hours at 37 C
Sequence (P48730 whole entry): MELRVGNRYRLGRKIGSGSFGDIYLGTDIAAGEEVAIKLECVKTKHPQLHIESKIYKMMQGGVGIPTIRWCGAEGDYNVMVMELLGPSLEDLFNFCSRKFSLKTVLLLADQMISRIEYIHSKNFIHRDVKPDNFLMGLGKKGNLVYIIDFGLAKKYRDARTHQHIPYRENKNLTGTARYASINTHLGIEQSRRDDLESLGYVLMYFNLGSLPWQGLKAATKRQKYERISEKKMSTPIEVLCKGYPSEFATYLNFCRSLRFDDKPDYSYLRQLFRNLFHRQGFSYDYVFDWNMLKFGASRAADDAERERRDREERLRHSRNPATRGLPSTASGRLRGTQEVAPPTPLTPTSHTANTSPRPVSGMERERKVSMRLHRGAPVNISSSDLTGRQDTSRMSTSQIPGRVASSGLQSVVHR
Readings of pIC50 for the listed molecules
// pIC50 here means minus log10 of the molar concentration (mol/L)

Solved cases (5 shown):
>  <MOLECULE>
Cc1cc(-c2c(-c3ccc(F)cc3)nn3c2COC[C@@H]3C)c2cn[nH]c2n1 (single isomer, unassigned)

>  <SUBJECT_OF_TEST>
human CSNK1D (Homo sapiens)

>  <pIC50>
6.53

$$$$
>  <MOLECULE>
Fc1ccc(-c2nn3c(c2-c2ccnc4[nH]ncc24)[C@H](Cl)C[C@]2(C3)CC2(F)F)nc1 (single isomer, unassigned)

>  <SUBJECT_OF_TEST>
human CSNK1D (Homo sapiens)

>  <pIC50>
7.14

$$$$
>  <MOLECULE>
[2H]C([2H])([2H])[C@@]1(C([2H])([2H])F)CCc2c(-c3c(F)cnc4[nH]ncc34)c(-c3ccc(F)cn3)nn2C1 (single isomer, unassigned)

>  <SUBJECT_OF_TEST>
human CSNK1D (Homo sapiens)

>  <pIC50>
7.64

$$$$
>  <MOLECULE>
Fc1ccc(-c2nn3c(c2-c2ccnc4[nH]ncc24)[C@@H](Cl)C[C@]2(C3)CC2(F)F)nc1 (single isomer, unassigned)

>  <SUBJECT_OF_TEST>
human CSNK1D (Homo sapiens)

>  <pIC50>
7.10

$$$$
>  <MOLECULE>
CCC(=O)Nc1cc(-c2c(-c3ccc(F)cn3)nn3c2OCC(C)C3)ccn1 (stereo not drawn)

>  <SUBJECT_OF_TEST>
human CSNK1D (Homo sapiens)

>  <pIC50>
7.64

$$$$

Shift focus to the following entry.
Which pIC50 is reported for this molecule? `Cc1cc(-c2c(-c3ccc(F)cc3)nn3c2CCC(F)(F)C3)c2cn[nH]c2n1`
7.92

* * *

target: human recombinant GST cleaved CSNK1D (Homo sapiens, UniProt P48730); construct: GST (cleaved yes); test: Purified Enzyme Assay (ADP-Glo CSNK1D Kinase Assay); conditions: 2 nM CSNK1D; peptide substrate 150 μM; ATP 20 μM; 45 minutes at room temperature
Sequence (P48730 whole entry): as above
OBSERVABLE: IC50 (nM)
Express the result in nM but write the number alone.

>  <COMPOUND>
CC1(C)COCc2c(-c3ccnc4[nH]ncc34)c(-c3ccc(F)cc3)nn21

>  <OBSERVABLE>
IC50

>  <MEAS_VALUE>
13

$$$$
>  <COMPOUND>
Fc1ccc(-c2nn3c(c2-c2ccnc4[nH]ncc24)[C@H](Cl)C[C@]2(C3)CC2(F)F)nc1 (single isomer, unassigned)

>  <OBSERVABLE>
IC50

>  <MEAS_VALUE>
5

$$$$
>  <COMPOUND>
Fc1cnc(-c2nn3c(c2-c2ccnc4[nH]ncc24)CCCC3)c(F)c1

>  <OBSERVABLE>
IC50

>  <MEAS_VALUE>
14

$$$$

What value of IC50 on human recombinant GST cleaved CSNK1D (Homo sapiens, UniProt P48730) does `Cc1nc2[nH]ncc2c(-c2c(-c3ccc(F)cn3)nn3c2OCC2(CC2)C3)c1F` have?
2

* * *

Readings of pIC50 for the listed molecules
molecular target: human recombinant GST cleaved CSNK1D (Homo sapiens); construct: GST (cleaved yes); test: Purified Enzyme Assay (ADP-Glo CSNK1D Kinase Assay); details: 2 nM CSNK1D; peptide substrate 150 μM; ATP 20 μM; 45 minutes at room temperature
// pIC50 here means minus log10 of the molar concentration (mol/L)

>  <MOLECULE>
Cc1cc(-c2c(-c3ccc(F)cc3)nn3c2C[C@@]2(C3)CC2(F)F)c2cn[nH]c2n1 (single isomer, unassigned) [Example 252]

>  <pIC50>
8.70

$$$$
>  <MOLECULE>
Fc1ccc(-c2nn3c(c2-c2ccnc4[nH]ncc24)CO[C@H](C2CCC2)C3)nc1 (single isomer, unassigned) [Example 110]

>  <pIC50>
7.31

$$$$
>  <MOLECULE>
Cc1cc(-c2c(-c3ccc(F)cn3)nn3c2CC(C)(C)C3)c2cc[nH]c2n1 [Example 235]

>  <pIC50>
9.00

$$$$

Shift focus to the following entry.
What value of pIC50 on human recombinant GST cleaved CSNK1D (Homo sapiens) does Cc1n[nH]c2nc(C(F)F)cc(-c3c(-c4ccc(F)cc4)nn4c3COC(C(F)(F)F)C4)c12 (single isomer, unassigned) [Example 375] have?
7.19

* * *

target: human recombinant GST cleaved CSNK1D (Homo sapiens, UniProt P48730); construct: GST (cleaved yes); experiment: Purified Enzyme Assay (ADP-Glo CSNK1D Kinase Assay); conditions: 2 nM CSNK1D; peptide substrate 150 μM; ATP 20 μM; 45 minutes at room temperature
OBSERVABLE: IC50 (nM)
Express the result in nM but write the number alone.

Solved cases (2 shown):
>  <COMPOUND>
Cc1n[nH]c2nccc(-c3c(-c4ccc(F)cc4)nn4c3OCC3(C4)CC3(F)F)c12 (single isomer, unassigned) [Example 472]

>  <SUBJECT_OF_TEST>
human recombinant GST cleaved CSNK1D (Homo sapiens, UniProt P48730)

>  <MEAS_VALUE>
69

$$$$
>  <COMPOUND>
CC1(C)CCc2c(-c3ccnc(N)c3)c(-c3ccc(F)cn3)nn2C1

>  <SUBJECT_OF_TEST>
human recombinant GST cleaved CSNK1D (Homo sapiens, UniProt P48730)

>  <MEAS_VALUE>
4

$$$$

What value of IC50 on human recombinant GST cleaved CSNK1D (Homo sapiens, UniProt P48730) does Cc1n[nH]c2ncc(F)c(-c3c(-c4ccc(F)cn4)nn4c3CC[C@H]3[C@@H]4C3(F)F)c12 (single isomer, unassigned) have?
1670

What value of IC50 on human recombinant GST cleaved CSNK1D (Homo sapiens, UniProt P48730) does Cc1cc(-c2c(-c3ccc(F)cc3)nn3c2CC2(C3)CC2(F)F)c2cn[nH]c2n1 (single isomer, unassigned) have?
21

* * *

target: UniProtKB P48730; assay: Whole Cell nBRET CSNK1D Binding Assay; settings: living CHO cells stably expressing human CSNK1D tagged with nanoluciferase; NanoBret tracer 130 nM; 2 hours at 37 C
Readings of IC50 for the listed molecules
Express the result in nM but write the number alone.

Solved cases (5 shown):
>  <MOLECULE>
[2H]C([2H])([2H])[C@]1(C#N)CCc2c(-c3ccnc4[nH]ncc34)c(-c3ccc(F)cn3)nn2C1 (single isomer, unassigned)

>  <OBSERVABLE>
IC50

>  <MEAS_VALUE>
15

$$$$
>  <MOLECULE>
Cc1nc(-c2c(-c3ccc(F)cc3)nn3c2COC(C)(C)C3)c2cn[nH]c2n1

>  <OBSERVABLE>
IC50

>  <MEAS_VALUE>
18

$$$$
>  <MOLECULE>
Fc1ccc(-c2nn3c(c2-c2c(F)cnc4[nH]ncc24)CCC3)nc1

>  <OBSERVABLE>
IC50

>  <MEAS_VALUE>
460

$$$$
>  <MOLECULE>
Fc1ccc(-c2nn3c(c2-c2c(F)cnc4[nH]ncc24)OCC2(CC2)C3)nc1

>  <OBSERVABLE>
IC50

>  <MEAS_VALUE>
80

$$$$
>  <MOLECULE>
CCn1ncc2cc(-c3c(-c4ccc(F)cn4)nn4c3COC(C)(C)C4)cnc21

>  <OBSERVABLE>
IC50

>  <MEAS_VALUE>
5690

$$$$

What value of IC50 on UniProtKB P48730 does `Fc1ccc(-c2nn3c(c2-c2ccnc4[nH]ncc24)C[C@H]2C[C@H]23)nc1` have?
672
